- Tested on: HT-22
- protocol.text: Neuroprotective activity against amyloid beta (1 to 42) transfected mouse HT-22 cells assessed as protection against amyloid-induced inflammation at 40 uM after 24 hrs by MTT assay
- Format: functional, cell-based
The source made the active and inactive calls. The rule behind the calls is not given here.
outcome.measure: Activity

1) CO[C@@H]1C=C2[C@@H]3CC(C)(C)CC[C@]3(O)C(=O)C[C@@]2(C)[C@]2(C)CC[C@H]3C(C)(C)C(=O)C=C[C@]3(C)[C@@H]12	Active
2) CC1(CO)CC[C@]2(O)C(=O)C[C@]3(C)C(=CC[C@@H]4[C@@]5(C)CCC(=O)C(C)(C)[C@@H]5CC[C@]43C)[C@@H]2C1 (some centres undefined)	Active
3) CC1(C)CC[C@]2(O)C(=O)C[C@]3(C)C(=C[C@@H](O)[C@@H]4[C@@]5(C)[C@H](O)CC(=O)C(C)(C)[C@@H]5CC[C@]43C)[C@@H]2C1	Active
4) CO[C@@H]1C=C2[C@@H]3CC(C)(C)CC[C@]3(O)C(=O)C[C@@]2(C)[C@]2(C)CC[C@H]3C(C)(C)C(=O)C[C@@H](O)[C@]3(C)[C@@H]12	Active

* * *

- test.target: UniProt P56817
- Sequence (P56817 whole entry): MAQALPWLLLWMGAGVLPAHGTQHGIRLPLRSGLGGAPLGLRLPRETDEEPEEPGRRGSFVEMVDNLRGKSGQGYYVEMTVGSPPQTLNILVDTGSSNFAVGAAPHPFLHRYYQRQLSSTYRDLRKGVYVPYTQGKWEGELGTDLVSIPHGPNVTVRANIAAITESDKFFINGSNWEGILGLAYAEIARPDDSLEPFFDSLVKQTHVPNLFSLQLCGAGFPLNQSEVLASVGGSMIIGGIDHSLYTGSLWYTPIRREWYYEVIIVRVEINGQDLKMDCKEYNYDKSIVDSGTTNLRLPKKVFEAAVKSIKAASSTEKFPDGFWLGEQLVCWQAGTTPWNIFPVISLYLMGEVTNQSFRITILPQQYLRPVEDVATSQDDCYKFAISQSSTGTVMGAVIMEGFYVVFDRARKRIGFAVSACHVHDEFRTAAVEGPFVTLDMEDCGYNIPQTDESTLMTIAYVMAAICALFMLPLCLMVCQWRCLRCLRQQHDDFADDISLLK
- protocol.text: Inhibition of BACE1 (unknown origin) at 20 uM measured after 60 mins by FRET assay relative to control
Please provide measured inhibition for the entries that follow.
Please state the number and follow it with the unit.

1. CO[C@@H]1C=C2[C@@H]3CC(C)(C)CC[C@]3(O)C(=O)C[C@@]2(C)[C@]2(C)CC[C@H]3C(C)(C)C(=O)C[C@@H](O)[C@]3(C)[C@@H]12	51.9%
2. CC1(C)CC[C@]2(O)C(=O)C[C@]3(C)C(=C[C@@H](O)[C@@H]4[C@@]5(C)[C@H](O)CC(=O)C(C)(C)[C@@H]5CC[C@]43C)[C@@H]2C1	51.1%
3. CO[C@@H]1C=C2[C@@H]3CC(C)(C)CC[C@]3(O)C(=O)C[C@@]2(C)[C@]2(C)CC[C@H]3C(C)(C)C(=O)C=C[C@]3(C)[C@@H]12	61.3%

Form field: inhibition recorded for CC1(CO)CC[C@]2(O)C(=O)C[C@]3(C)C(=CC[C@@H]4[C@@]5(C)CCC(=O)C(C)(C)[C@@H]5CC[C@]43C)[C@@H]2C1 (some centres undefined) with UniProt P56817 (enter value)
60.6%
